Recorded Endpoint: melting point (°C)

# Structure Smiles String, melting point [°C]
records = [
    ("CCc1cccc(C)c1CNc1cc(Cl)nc2cc(C)[nH]c12", 296),
    ("CCOC(=O)c1cc(NCc2c(C)cccc2C)c2[nH]c(C)cc2n1", 254),
]
